Reference for the values: ChEMBL document CHEMBL5724914

EXPERIMENTAL_SETUP: human gut metagenome, 24 h, 2 µM; further: call rule not given here
RECORDED_ENDPOINT: Bacterial Biotransformation

Recorded Bacterial Biotransformation, per entry:
MOLECULE: O=C1CC2(CCCC2)CC(=O)N1CCCCN1CCN(c2ncccn2)CC1
Bacterial Biotransformation: Compound NOT metabolized

MOLECULE: N#Cc1ccc2[nH]cc(CCCCN3CCN(c4ccc5oc(C(N)=O)cc5c4)CC3)c2c1
Bacterial Biotransformation: Compound metabolized

MOLECULE: Br.CN1CCC[C@@H]1Cc1c[nH]c2ccc(CCS(=O)(=O)c3ccccc3)cc12 [ELETRIPTAN HYDROBROMIDE]
Bacterial Biotransformation: Compound NOT metabolized

MOLECULE: Cc1nc(Nc2ncc(C(=O)Nc3c(C)cccc3Cl)s2)cc(N2CCN(CCO)CC2)n1 [DASATINIB ANHYDROUS]
Bacterial Biotransformation: Compound NOT metabolized

MOLECULE: C=C[C@H]1CN2CC[C@H]1C[C@H]2[C@H](O)c1ccnc2ccc(OC)cc12.C=C[C@H]1CN2CC[C@H]1C[C@H]2[C@H](O)c1ccnc2ccc(OC)cc12.O.O.O=S(=O)(O)O [QUININE SULFATE]
Bacterial Biotransformation: Compound NOT metabolized

MOLECULE: CN1CCC(OC(c2ccccc2)c2ccccc2)CC1
Bacterial Biotransformation: Compound NOT metabolized

Qu. So what does the record say about Bacterial Biotransformation for OC(c1cc(C(F)(F)F)nc2c(C(F)(F)F)cccc12)C1CCCCN1 (centres undefined) ?
Ans. Compound metabolized

Qu. So what does the record say about Bacterial Biotransformation for COC(=O)[C@H](c1ccccc1Cl)N1CCc2sccc2C1.O=S(=O)(O)O [CLOPIDOGREL BISULFATE] ?
Ans. Compound metabolized

Qu. So what does the record say about Bacterial Biotransformation for CC(C)NCC(O)COc1ccc(CC(N)=O)cc1 (centres undefined) ?
Ans. Compound NOT metabolized

###

PROTOCOL_DESCRIPTION: The drug is tested on Z-017 corresponding to mouse gut metagenome with ENA study accession number: PRJEB37062 and ENA sample accession number: ERS12561816 for biotransformation under anaerobic condition. The drug concentrations were measured over 9 timepoints collected between 0 and 24 hours of incubation by liquid-chromatography-coupled mass spectrometry (LC–MS)
EXPERIMENTAL_SETUP: 2 µM
RECORDED_ENDPOINT: Bacterial Biotransformation

COMPOUND: CCN1CCCC1CNC(=O)c1cc(S(=O)(=O)CC)c(N)cc1OC (stereo not drawn) [AMISULPRIDE]
RECORDED_ENDPOINT: Bacterial Biotransformation
RESULT: Compound NOT metabolized
--
COMPOUND: CCOc1ccccc1OCCN[C@H](C)Cc1ccc(OC)c(S(N)(=O)=O)c1.Cl [TAMSULOSIN HYDROCHLORIDE]
RECORDED_ENDPOINT: Bacterial Biotransformation
RESULT: Compound NOT metabolized
--
COMPOUND: CC(=O)OCC(CCn1cnc2cnc(N)nc21)COC(C)=O [FAMCICLOVIR]
RECORDED_ENDPOINT: Bacterial Biotransformation
RESULT: Compound metabolized
--
COMPOUND: Cc1ccccc1C(OCCN(C)C)c1ccccc1.O=C(O)CC(O)(CC(=O)O)C(=O)O (stereo not drawn) [ORPHENADRINE CITRATE]
RECORDED_ENDPOINT: Bacterial Biotransformation
RESULT: Compound NOT metabolized
--
COMPOUND: CC(NC(C)(C)C)C(=O)c1cccc(Cl)c1 (stereo not drawn) [BUPROPION]
RECORDED_ENDPOINT: Bacterial Biotransformation
RESULT: Compound NOT metabolized

Qu. So what does the record say about Bacterial Biotransformation for CN1CCC(OC(c2ccccc2)c2ccccc2)CC1 ?
Ans. Compound NOT metabolized

Qu. So what does the record say about Bacterial Biotransformation for Br.COc1ccc2c(c1)[C@]13CCCC[C@@H]1[C@H](C2)N(C)CC3.O [DEXTROMETHORPHAN HYDROBROMIDE] ?
Ans. Compound NOT metabolized

Qu. So what does the record say about Bacterial Biotransformation for C#C[C@]1(OC(C)=O)CC[C@H]2[C@@H]3CCC4=CC(=O)CC[C@@H]4[C@H]3CC[C@@]21C [NORETHINDRONE ACETATE] ?
Ans. Compound metabolized
